system: OCI-AML2 (Acute Myeloid Leukemia); assay: Bliss excess, mean over the matrix (fraction); higher = more synergy;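 note: after 72 h of two-drug dosing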
measured attribute: Bliss excess

>  <molecule>
CC1(C)CCC(CN2CCN(c3ccc(C(=O)NS(=O)(=O)c4ccc(NCC5CCOCC5)c([N+](=O)[O-])c4)c(Oc4cnc5[nH]ccc5c4)c3)CC2)=C(c2ccc(Cl)cc2)C1 [Venetoclax] + CN(C)CCCOc1ccc(-c2ccc3ncc4c(c3c2)n(C2CCOCC2)c(=O)n4C)cn1 [AZD0156] (first compound max 1 µM, 7x7, partner max 1 µM)

>  <value>
-0.0267

$$$$
>  <molecule>
Cc1c2c(nn1C)CSCc1cc(n(C)n1)CSc1cc(c3ccccc3c1)OCCCc1c(C(=O)O)n(C)c3c-2c(Cl)ccc13 [AZD5991] + Cn1cnc2c(F)c(Nc3ccc(Br)cc3Cl)c(C(=O)NOCCO)cc21 [Selumetinib] (first compound max 1 µM, 7x7, partner max 3 µM)

>  <value>
0.0107

$$$$
>  <molecule>
COc1nnc2ccc(N3CCC(c4ccc(OCCN5CCN(C)C(=O)[C@H]5C)cc4)CC3)nn12 [AZD5153] + Cn1cnc2c(F)c(Nc3ccc(Br)cc3Cl)c(C(=O)NOCCO)cc21 [Selumetinib] (first compound max 1 µM, 7x7, partner max 10 µM)

>  <value>
0.0311

$$$$
>  <molecule>
COc1cccc(OCCCN)c1-c1cc(Nc2cnc(C#N)cn2)n[nH]1 [Prexasertib] + CN(C)CCCOc1ccc(-c2ccc3ncc4c(c3c2)n(C2CCOCC2)c(=O)n4C)cn1 [AZD0156] (first compound max 1 µM, 7x7, partner max 1 µM)

>  <value>
-0.0276

$$$$
>  <molecule>
CC(=O)c1c(C)c2cnc(Nc3ccc(N4CCNCC4)cn3)nc2n(C2CCCC2)c1=O [Palbociclib] + CC1(C)CCC(CN2CCN(c3ccc(C(=O)NS(=O)(=O)c4ccc(NCC5CCOCC5)c([N+](=O)[O-])c4)c(Oc4cnc5[nH]ccc5c4)c3)CC2)=C(c2ccc(Cl)cc2)C1 [Venetoclax] (first compound max 10 µM, 7x7, partner max 1 µM)

>  <value>
0.0188

$$$$
>  <molecule>
CS(=O)(=O)CCNCc1ccc(-c2ccc3ncnc(Nc4ccc(OCc5cccc(F)c5)c(Cl)c4)c3c2)o1 [Lapatinib] + NC1(c2ccc(-c3nc4ccn5c(=O)[nH]nc5c4cc3-c3ccccc3)cc2)CCC1 [MK-2206] (first compound max 10 µM, 7x7, partner max 10 µM)

>  <value>
0.0419

$$$$

* * *

test system: NCI-H1694 (Small Cell Lung Carcinoma); experiment: combination Emax (second highest fraction inhibited in the dose matrix, 72 h); higher = more inhibition; extreme values may be limits of the assay

>  <compound>
COc1cccc2c1C(=O)c1c(O)c3c(c(O)c1C2=O)C[C@@](O)(C(=O)CO)C[C@@H]3O[C@H]1C[C@H](N)[C@H](O)[C@H](C)O1 [Doxorubicin] + Cc1cc2ncnn2cc1Nc1ncc2c(n1)n(C1CCOCC1)c(=O)n2C [AZD7648] (first compound max 1 µM, 7x7, partner max 10 µM)

>  <target of assay>
NCI-H1694 (Small Cell Lung Carcinoma)

>  <combination Emax>
0.921

$$$$
>  <compound>
CN(CCO)CC[C@H](CSc1ccccc1)Nc1ccc(S(=O)(=O)NC(=O)c2ccc(N3CCC([C@@H](O)c4ccccc4-c4ccc(Cl)cc4)CC3)cc2)cc1S(=O)(=O)C(F)(F)F [AZD4320] + Cc1cc2ncnn2cc1Nc1ncc2c(n1)n(C1CCOCC1)c(=O)n2C [AZD7648] (first compound max 1 µM, 7x7, partner max 10 µM)

>  <target of assay>
NCI-H1694 (Small Cell Lung Carcinoma)

>  <combination Emax>
0.76

$$$$
>  <compound>
C[C@@H](c1ccc2nccn2c1)n1nnc2ncc(-c3cnn(C)c3)nc21 [Savolitinib] + CC1(C)CCC(CN2CCN(c3ccc(C(=O)NS(=O)(=O)c4ccc(NCC5CCOCC5)c([N+](=O)[O-])c4)c(Oc4cnc5[nH]ccc5c4)c3)CC2)=C(c2ccc(Cl)cc2)C1 [Venetoclax] (first compound max 1 µM, 7x7, partner max 1 µM)

>  <target of assay>
NCI-H1694 (Small Cell Lung Carcinoma)

>  <combination Emax>
0.102

$$$$
>  <compound>
CC1(C)CCC(CN2CCN(c3ccc(C(=O)NS(=O)(=O)c4ccc(NCC5CCOCC5)c([N+](=O)[O-])c4)c(Oc4cnc5[nH]ccc5c4)c3)CC2)=C(c2ccc(Cl)cc2)C1 [Venetoclax] + COc1cc(Nc2ncc3c(n2)-c2ccc(Cl)cc2C(c2c(F)cccc2OC)=NC3)ccc1C(=O)O [Alisertib] (first compound max 1 µM, 7x7, partner max 10 µM)

>  <target of assay>
NCI-H1694 (Small Cell Lung Carcinoma)

>  <combination Emax>
0.667

$$$$
>  <compound>
CC1(C)CCC(CN2CCN(c3ccc(C(=O)NS(=O)(=O)c4ccc(NCC5CCOCC5)c([N+](=O)[O-])c4)c(Oc4cnc5[nH]ccc5c4)c3)CC2)=C(c2ccc(Cl)cc2)C1 [Venetoclax] + CN(C)CCCOc1ccc(-c2ccc3ncc4c(c3c2)n(C2CCOCC2)c(=O)n4C)cn1 [AZD0156] (first compound max 1 µM, 7x7, partner max 1 µM)

>  <target of assay>
NCI-H1694 (Small Cell Lung Carcinoma)

>  <combination Emax>
0.14

$$$$
>  <compound>
CC1(C)CCC(CN2CCN(c3ccc(C(=O)NS(=O)(=O)c4ccc(NCC5CCOCC5)c([N+](=O)[O-])c4)c(Oc4cnc5[nH]ccc5c4)c3)CC2)=C(c2ccc(Cl)cc2)C1 [Venetoclax] + C[C@@H]1COCCN1C2=NC(=NC(=C2)C3(CC3)[S@](=N)(=O)C)C4=C5C=CNC5=NC=C4 [AZD6738] (first compound max 1 µM, 7x7, partner max 10 µM)

>  <target of assay>
NCI-H1694 (Small Cell Lung Carcinoma)

>  <combination Emax>
0.822

$$$$

* * *

test system: SNU-C5 (Colorectal Carcinoma); assay: combination Emax (second highest fraction inhibited in the dose matrix, 72 h); higher = more inhibition; extreme values may be limits of the assay

>  <compound>
COc1cccc(OCCCN)c1-c1cc(Nc2cnc(C#N)cn2)n[nH]1 [Prexasertib] + O=C(c1cc(Cc2n[nH]c(=O)c3ccccc23)ccc1F)N1CCN(C(=O)C2CC2)CC1 [Olaparib] (first compound max 1 µM, 7x7, partner max 10 µM)

>  <combination Emax>
0.776

$$$$
>  <compound>
CCN(CCO)CCCOc1ccc2c(Nc3cc(CC(=O)Nc4cccc(F)c4)[nH]n3)ncnc2c1 [AZD2811] + O=C(c1cc(Cc2n[nH]c(=O)c3ccccc23)ccc1F)N1CCN(C(=O)C2CC2)CC1 [Olaparib] (first compound max 1 µM, 7x7, partner max 10 µM)

>  <combination Emax>
0.161

$$$$
>  <compound>
C[C@@H](c1ccc2nccn2c1)n1nnc2ncc(-c3cnn(C)c3)nc21 [Savolitinib] + CN(CC[C@H](CSC1=CC=CC=C1)NC2=C(C=C(C=C2)S(=O)(=O)NC(=O)C3=CC=C(C=C3)N4CCC(CC4)[C@H](C5=CC=CC=C5C6=CC=C(C=C6)Cl)O)S(=O)(=O)C(F)(F)F)CCO [AZD4320] (first compound max 1 µM, 7x7, partner max 1 µM)

>  <combination Emax>
0.173

$$$$
>  <compound>
COc1cccc(OCCCN)c1-c1cc(Nc2cnc(C#N)cn2)n[nH]1 [Prexasertib] + CCc1c2c(nc3ccc(O)cc13)-c1cc3c(c(=O)n1C2)COC(=O)[C@]3(O)CC [SN-38] (first compound max 1 µM, 7x7, partner max 0.3 µM)

>  <combination Emax>
0.928

$$$$
>  <compound>
CCN(CCO)CCCOc1ccc2c(Nc3cc(CC(=O)Nc4cccc(F)c4)[nH]n3)ncnc2c1 [AZD2811] + C[C@@H]1COCCN1C2=NC(=NC(=C2)C3(CC3)[S@](=N)(=O)C)C4=C5C=CNC5=NC=C4 [AZD6738] (first compound max 1 µM, 7x7, partner max 10 µM)

>  <combination Emax>
0.755

$$$$
>  <compound>
Cc1cc2ncnn2cc1Nc1ncc2c(n1)n(C1CCOCC1)c(=O)n2C [AZD7648] + O=C(c1cc(Cc2n[nH]c(=O)c3ccccc23)ccc1F)N1CCN(C(=O)C2CC2)CC1 [Olaparib] (first compound max 10 µM, 7x7, partner max 10 µM)

>  <combination Emax>
0.24

$$$$
>  <compound>
NC1(C(=O)N[C@@H](CCO)c2ccc(Cl)cc2)CCN(c2ncnc3[nH]ccc23)CC1 [Capivasertib] + C[C@@H]1COCCN1C2=NC(=NC(=C2)C3(CC3)[S@](=N)(=O)C)C4=C5C=CNC5=NC=C4 [AZD6738] (first compound max 10 µM, 7x7, partner max 10 µM)

>  <combination Emax>
0.811

$$$$
>  <compound>
Cn1cnc2c(F)c(Nc3ccc(Br)cc3Cl)c(C(=O)NOCCO)cc21 [Selumetinib] + CC(C)n1c(=O)n(C)c2cnc3cc(F)c(-c4ccc(OCCCN5CCCCC5)nc4)cc3c21 [AZD1390] (first compound max 10 µM, 7x7, partner max 0.3 µM)

>  <combination Emax>
0.351

$$$$
>  <compound>
CN(CCO)CC[C@H](CSc1ccccc1)Nc1ccc(S(=O)(=O)NC(=O)c2ccc(N3CCC([C@@H](O)c4ccccc4-c4ccc(Cl)cc4)CC3)cc2)cc1S(=O)(=O)C(F)(F)F [AZD4320] + CCN(CCO)CCCOc1ccc2c(Nc3cc(CC(=O)Nc4cccc(F)c4)[nH]n3)ncnc2c1 [AZD2811] (first compound max 1 µM, 7x7, partner max 1 µM)

>  <combination Emax>
0.196

$$$$
>  <compound>
CC(=O)c1c(C)c2cnc(Nc3ccc(N4CCNCC4)cn3)nc2n(C2CCCC2)c1=O [Palbociclib] + CN(CC[C@H](CSC1=CC=CC=C1)NC2=C(C=C(C=C2)S(=O)(=O)NC(=O)C3=CC=C(C=C3)N4CCC(CC4)[C@H](C5=CC=CC=C5C6=CC=C(C=C6)Cl)O)S(=O)(=O)C(F)(F)F)CCO [AZD4320] (first compound max 10 µM, 7x7, partner max 1 µM)

>  <combination Emax>
0.388

$$$$
>  <compound>
COc1nnc2ccc(N3CCC(c4ccc(OCCN5CCN(C)C(=O)[C@H]5C)cc4)CC3)nn12 [AZD5153] + CCN(CCO)CCCOc1ccc2c(Nc3cc(CC(=O)Nc4cccc(F)c4)[nH]n3)ncnc2c1 [AZD2811] (first compound max 1 µM, 7x7, partner max 1 µM)

>  <combination Emax>
0.517

$$$$
>  <compound>
CN(C)CCCOc1ccc(-c2ccc3ncc4c(c3c2)n(C2CCOCC2)c(=O)n4C)cn1 [AZD0156] + O=C(c1cc(Cc2n[nH]c(=O)c3ccccc23)ccc1F)N1CCN(C(=O)C2CC2)CC1 [Olaparib] (first compound max 3 µM, partner max 3 µM)

>  <combination Emax>
0.325

$$$$
>  <compound>
CS(=O)(=O)CCNCc1ccc(-c2ccc3ncnc(Nc4ccc(OCc5cccc(F)c5)c(Cl)c4)c3c2)o1 [Lapatinib] + C[C@@H](Oc1cc(-c2cnn(C3CCNCC3)c2)cnc1N)c1c(Cl)ccc(F)c1Cl [Crizotinib] (first compound max 10 µM, 7x7, partner max 10 µM)

>  <combination Emax>
0.764

$$$$
